Provide the reported melting point of each item.

### Prompt Given O=c1oc(-c2ccccc2)cc(O)c1SCCOc1ccccc1 , state its recorded melting point.
### Response 146 to 149 °C

### Prompt Given CN1CCN(Cc2ccc3c(=O)n(CCCCN4CC=C(c5ccccc5)CC4)c(=O)[nH]c3c2)CC1 , state its recorded melting point.
### Response 167 to 168 °C

### Prompt Given Cn1nc(Br)c([N+](=O)[O-])c1Br , state its recorded melting point.
### Response 154 °C

### Prompt Given Nc1sc(-c2ccccc2)c(CN(C2CCCCC2)C2CCCCC2)c1C(=O)c1ccc(Cl)cc1 , state its recorded melting point.
### Response 201 to 203 °C

### Prompt Given CCCCCCCCCCCCOc1ccc(C2SCCCS2)cc1OCCCCCCCCCCCC , state its recorded melting point.
### Response 73 to 75 °C

### Prompt Given CN1C(=O)C(c2cccc(-c3cccnc3F)c2)(c2cnn(CC(F)(F)F)c2)N=C1N (centres undefined) , state its recorded melting point.
### Response 104 to 106 °C

### Prompt Given O=C1NC(Cc2ccc(OCc3ccccc3)cn2)C(=O)NC1Cc1ccc(F)cc1 (centres undefined) , state its recorded melting point.
### Response 220 to 222 °C

### Prompt Given CCCCC12CCC3C4CCC(=O)C=C4CCC3C1CCC2O (centres undefined) , state its recorded melting point.
### Response 169 to 170 °C

### Prompt Given O=C1N(Cc2ccc(C(F)(F)F)o2)c2ccccc2C12COc1cc3c(cc12)OCCCO3 (centres undefined) , state its recorded melting point.
### Response 162 to 164 °C

###

observedProperty: melting point

### Prompt Given CCCN(CCC)C(=O)n1cnc(S(=O)(=O)CCC)n1 , state its recorded melting point.
### Response 79 to 80 °C

### Prompt Given C=C(C)CO[C@H]1[C@H](C)OC(=O)[C@@H](NC(=O)c2nccc(OC)c2OCc2ccccc2)COC(=O)[C@@H]1Cc1ccccc1 , state its recorded melting point.
### Response 50 to 52 °C

### Prompt Given Cc1cc(Cc2nnc(Nc3ccc(Cl)cc3)c3ccccc23)cc(C)n1 , state its recorded melting point.
### Response 175 to 176 °C

### Prompt Given O=C(CCC(C(=O)O)N1C(=O)c2ccccc2C1=O)OCc1ccccc1 (stereo unspecified) , state its recorded melting point.
### Response 96 to 98 °C

### Prompt Given CN(C)CCCCC(=O)c1ccc2c(c1)C(=O)c1cc(C(=O)CCCCN(C)C)ccc1-2 , state its recorded melting point.
### Response 150 to 151 °C

### Prompt Given COc1c(F)c(F)c(C(=O)c2c(F)c(F)c(F)c(F)c2F)c(OC)c1F , state its recorded melting point.
### Response 49 to 50 °C

### Prompt Given Cn1nc(SCSc2nn(C)c3ccc(Cl)cc3c2=O)c(=O)c2cc(Cl)ccc21 , state its recorded melting point.
### Response 352 to 354 °C

### Prompt Given COC(=O)C1=C(O)c2ccccc2S(=O)(=O)N1C , state its recorded melting point.
### Response 163 to 165 °C

### Prompt Given CNC(=O)c1ccccc1Sc1ccc(C)cc1[N+](=O)[O-] , state its recorded melting point.
### Response 122 to 123 °C

### Prompt Given C=Cn1cc(C(N)=O)c([N+](=O)[O-])n1 , state its recorded melting point.
### Response 150 to 152 °C

### Prompt Given Nc1ccc(OCc2ccc(Cl)nc2)cc1F , state its recorded melting point.
### Response 101 °C

### Prompt Given CCOc1cc(CCl)nc(OCC)n1 , state its recorded melting point.
### Response 38 to 39 °C

### Prompt Given Cc1nnc(-c2ccc3occ(-c4cccc(C#N)c4)c3c2)o1 , state its recorded melting point.
### Response 204 to 205 °C

### Prompt Given COc1cccc(Oc2ccc3ccc(-c4cc(OC)ccc4C(N)=O)nc3n2)c1 , state its recorded melting point.
### Response 150 °C

### Prompt Given O=C1CCc2cc(NCC(=O)N3CCC(Cc4ccc(F)cc4)CC3)ccc2N1 , state its recorded melting point.
### Response 197 to 200 °C

### Prompt Given CCCCCCCCOC(=O)/C(C#N)=C/C=C/N(C)C , state its recorded melting point.
### Response 80 to 81 °C

### Prompt Given O=CC(CC(=O)c1ccc(F)cc1)c1ccccc1 (stereo unspecified) , state its recorded melting point.
### Response 192 to 194 °C

### Prompt Given CCC(C1=C(C)C(=O)C(C)=C(C)C1=O)c1ccc(C(C)C)cc1 (stereo unspecified) , state its recorded melting point.
### Response 61 to 63 °C

### Prompt Given CCCCC1=NC(Cl)(COC)CN1Cc1ccc(C(=O)O)cc1 (stereo unspecified) , state its recorded melting point.
### Response 126 to 128 °C

### Prompt Given CN(Cc1ccccc1)C1CCN(C(=O)c2ccc(-n3cncn3)cc2)CC1 , state its recorded melting point.
### Response 168 to 169 °C

### Prompt Given Cc1oc(-c2ccc3ccccc3c2)nc1C=Cc1ccc(/C=C/C=O)cc1 , state its recorded melting point.
### Response 213 to 214 °C
